Let's look at some compounds and their measured melting point.
Give the value, in units of °C, as a plain number.

| COMPOUND | melting point / °C |
| --- | --- |
| CC1(C)CC(=O)C2=C(C1)Nc1cc(CO)ccc1NC2c1ccc(Cl)cc1Cl (stereo not shown) | 160 |
| CC(=O)N1c2ccccc2N(C)C2=C(C(=O)CC(C)(C)C2)C1c1ccc(Cl)cc1Cl (stereo not shown) | 145 |
| CC(=O)N1c2c(CNCCc3ccncc3)cccc2NC2=C(C(=O)CC(C)(C)C2)C1c1ccc(Cl)cc1Cl (stereo not shown) | 212 |

Okay, next one:
So for CC1(C)CC(=O)C2=C(C1)Nc1cccc(C#N)c1NC2c1ccc(Cl)cc1Cl (stereo not shown) , the logged melting point turned out to be 225
